From: ChEMBL document CHEMBL6114944

testName: Stability in mouse liver microsomes assessed as parent compound remaining after 60 mins
Format: ADME, Microsome
conditions: read-out: Stability
quantityName: remaining at 1 h (%)
Please respond with the number in % and leave the unit unwritten.

In: Item CCc1oc2ccccc2c1C(=O)c1cc(Br)c(O)c(Br)c1 has what recorded remaining at 1 h?
Out: 4.5

In: Item O=C(O)CCCN(c1cccc(F)c1)c1ccnc2ccc(C(F)(F)F)cc12 has what recorded remaining at 1 h?
Out: 83.2

* * *

tgt: Solute carrier family 22 member 12 (Homo sapiens, UniProt Q96S37)
Sequence (Q96S37 whole entry): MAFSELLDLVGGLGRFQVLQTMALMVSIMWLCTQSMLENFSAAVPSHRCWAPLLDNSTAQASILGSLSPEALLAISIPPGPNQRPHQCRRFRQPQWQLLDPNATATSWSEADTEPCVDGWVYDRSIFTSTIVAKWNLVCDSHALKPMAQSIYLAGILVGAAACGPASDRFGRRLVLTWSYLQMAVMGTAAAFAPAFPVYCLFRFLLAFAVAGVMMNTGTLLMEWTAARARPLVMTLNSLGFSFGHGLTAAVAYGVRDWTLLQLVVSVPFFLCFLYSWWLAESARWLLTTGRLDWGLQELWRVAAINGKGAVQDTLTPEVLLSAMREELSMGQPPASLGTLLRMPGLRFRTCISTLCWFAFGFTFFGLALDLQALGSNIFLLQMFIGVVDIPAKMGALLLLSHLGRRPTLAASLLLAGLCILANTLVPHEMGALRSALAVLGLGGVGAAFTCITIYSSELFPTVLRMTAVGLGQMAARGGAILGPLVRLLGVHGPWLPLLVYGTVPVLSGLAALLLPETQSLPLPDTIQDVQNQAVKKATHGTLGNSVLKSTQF
testName: Inhibition of URAT1 (unknown origin) expressed in HEK293 cells at 10 uM using 14C-uric acid as substrate relative to control
Type: cell-based
Field: inhibition at 10 µM. Provide a value for each of the molecules that follow.
Please respond with the number in % and leave the unit unwritten.

In: Lookup: inhibition at 10 µM / Solute carrier family 22 member 12 (Homo sapiens, UniProt Q96S37) / O=C(O)CCCN(c1cccc(Br)c1)c1ccnc2ccc(C(F)(F)F)cc12
Out: 95

In: Lookup: inhibition at 10 µM / Solute carrier family 22 member 12 (Homo sapiens, UniProt Q96S37) / O=C(O)CCCN(c1ccccc1F)c1ccnc2ccc(C(F)(F)F)cc12
Out: 90

In: Lookup: inhibition at 10 µM / Solute carrier family 22 member 12 (Homo sapiens, UniProt Q96S37) / CC(C)(C)c1cccc(N(CCCC(=O)O)c2ccnc3ccc(C(F)(F)F)cc23)c1
Out: 50

In: Lookup: inhibition at 10 µM / Solute carrier family 22 member 12 (Homo sapiens, UniProt Q96S37) / Cc1cccc(N(CCCC(=O)O)c2ccnc3ccc(C(F)(F)F)cc23)c1
Out: 88

In: Lookup: inhibition at 10 µM / Solute carrier family 22 member 12 (Homo sapiens, UniProt Q96S37) / O=C(O)CCCN(c1cccc(F)c1)c1ccnc2ccc(F)cc12
Out: 95

In: Lookup: inhibition at 10 µM / Solute carrier family 22 member 12 (Homo sapiens, UniProt Q96S37) / O=C(O)c1cccc(CN(c2cccc(F)c2)c2ccnc3ccc(C(F)(F)F)cc23)c1
Out: 84

In: Lookup: inhibition at 10 µM / Solute carrier family 22 member 12 (Homo sapiens, UniProt Q96S37) / O=C(O)CCCN(c1cccc(F)c1)c1ccnc2cc(C(F)(F)F)ccc12
Out: 67

In: Lookup: inhibition at 10 µM / Solute carrier family 22 member 12 (Homo sapiens, UniProt Q96S37) / COc1cccc(N(CCCC(=O)O)c2ccnc3ccc(C(F)(F)F)cc23)c1
Out: 93

In: Lookup: inhibition at 10 µM / Solute carrier family 22 member 12 (Homo sapiens, UniProt Q96S37) / COc1ccc(-c2ccc3nccc(N(CCCC(=O)O)c4cccc(F)c4)c3c2)cc1
Out: 87

In: Lookup: inhibition at 10 µM / Solute carrier family 22 member 12 (Homo sapiens, UniProt Q96S37) / O=C(O)CCCN(c1cccc(F)c1)c1ccnc2ccc(-c3ccc(F)cc3)cc12
Out: 94

* * *

tgt: Solute carrier family 22 member 12 (Homo sapiens, UniProt Q96S37)
testName: Inhibition of URAT1 (unknown origin) expressed in HEK293 cells at 10 uM using 14C-uric acid as substrate relative to control
Assay type: cell-based
Field: inhibition at 10 µM. Provide a value for each of the molecules that follow.
Remember to put the unit after the number in your answer.

In: Item O=C(O)CCCCN(c1cccc(F)c1)c1ccnc2ccc(C(F)(F)F)cc12 has what recorded inhibition at 10 µM?
Out: 93%

In: Item O=C(O)CCCN(c1cccc(F)c1)c1ccnc2ccc(C(F)(F)F)cc12 has what recorded inhibition at 10 µM?
Out: 95%

In: Item O=C(O)CCCN(c1cccc(F)c1)c1ccnc2ccc(Br)cc12 has what recorded inhibition at 10 µM?
Out: 97%
